Values from patent US12404261B2

target entity: human truncated cGAS enzyme (147-522 human cGAS) (Homo sapiens (Human), UniProt Q8N884)
Sequence (Q8N884 147-522): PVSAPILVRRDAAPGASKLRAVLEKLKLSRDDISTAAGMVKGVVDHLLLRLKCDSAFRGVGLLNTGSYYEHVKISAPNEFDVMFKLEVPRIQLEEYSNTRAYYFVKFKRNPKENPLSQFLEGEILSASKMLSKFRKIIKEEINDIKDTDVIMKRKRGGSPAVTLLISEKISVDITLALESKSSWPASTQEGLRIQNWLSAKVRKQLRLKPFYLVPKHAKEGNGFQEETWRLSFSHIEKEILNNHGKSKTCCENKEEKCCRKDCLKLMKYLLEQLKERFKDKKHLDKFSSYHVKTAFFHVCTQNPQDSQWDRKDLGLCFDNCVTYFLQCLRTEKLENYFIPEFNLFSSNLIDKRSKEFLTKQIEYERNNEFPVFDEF
method description: Quantification of cGAS protein inhibition (cGAMP formation measured by LC-MS/MS)
Type: biochemical
details: reported for the potential mixture of co-existing tautomers and/or racemates
parameter measured: IC50 (nM)

Quickly give me recorded IC50 for `COCc1nnc(-c2c(-n3ccnc3)c3cc(OC)c(Cl)c(C#N)c3n2C)[nH]1`
76

I. COc1cc2c(-n3ccnc3)c(-c3nnc(N(C)CCO)[nH]3)n(C)c2c(F)c1Cl
II. OCCn1cnc(-c2[nH]c3c(Cl)c(Cl)ccc3c2-c2cn[nH]c2)n1
# return whichever of I and II has the smaller IC50 // return label of chosen record
I
